# Tested on: BAZ1B (Homo sapiens, UniProt Q9UIG0)
# Sequence (Q9UIG0 1339-1443 limits assumed): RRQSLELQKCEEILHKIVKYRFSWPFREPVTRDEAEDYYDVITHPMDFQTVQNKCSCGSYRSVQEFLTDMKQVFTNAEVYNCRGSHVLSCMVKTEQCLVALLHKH
# Assay comment: BROMOscan ligand-binding assay
# Condition description: KD, BROMOscan Gene Symbol BAZ1B
pKd: −log10 of the molar value.
Consider the following molecules and their measured pKd readings.

>>> df
                                   molecule  value_kind  result
0  CCCOc1ccn2c(C(C)=O)cc(-c3ccccc3S(C)(=O)=O)c2c1 [GSK2801]         pKd  < 4.00
1  CCC(=O)N1CCOc2c(cc(-c3ccc(OC)c(OC)c3)cc2OCC2CCCN(C)C2)C1 (stereo not drawn) [I-CBP112]         pKd  < 4.00

Exam item: Give recorded pKd with BAZ1B (Homo sapiens, UniProt Q9UIG0) for the following molecule: CCOC(=O)Nc1cc(-c2ccc(C)c(NS(C)(=O)=O)c2)nn2c(C)nnc12 [Bromosporine]
Marked response: 4.42

Cited source: paper PMC6478789
